- Test system: G-clamp-N3 (biotin conjugate)
- Assay protocol: pull-down binding Z-score (relative to library population); higher = stronger binding
- Condition label: RNA library: Library-1 (pre-miRNA loops + repeats)
Let's look at some sequences and their measured pull-down binding Z-score.
The reply should be a number, written without any unit.

GCCUUUCAACAUAAUGGC [hsa-mir-548w]
1.21
UUUCUGUUGUCUAAAAGAAGAGAAA [hsa-mir-518a-2]
0.832
GCUGGAUUUCCCAGCUUGACUCUAAC [hsa-mir-200a]
-0.177

Data request: Recorded pull-down binding Z-score of GGGCCAUGUCUGUGAGGGCCCA [hsa-mir-4294] , please.
Data returned: 3.2

Data request: Report pull-down binding Z-score for AGGCUCUGCAAGAUCAACCGAGCA [hsa-mir-330] please.
Data returned: -0.474

Data request: Consider the sequence UUGUCGUUAAAAAUAGCAA [hsa-mir-548n] and give its measured pull-down binding Z-score.
Data returned: 0.889

---

- Tested on: TO-N3-2 (biotin conjugate)
- Assay protocol: pull-down binding Z-score (relative to library population); higher = stronger binding
- Condition label: RNA library: Library-2
Classes based on pull-down binding Z-score: lower level: < -0.7; middle level: ≥ -0.7 and < 0.4; upper level: ≥ 0.4

Some entries whose results are on file:
CCUGUAUGUCUCCCCGCAGCACCGUCAUCGU [hsa-mir-6774]
upper level
GAGUUUGGAAUUAAAAUCAAAACC [hsa-mir-181a-1]
upper level
ACGUGAGUCUUGUAAAACCUUCUUUUUACGUUUACUCUCGU
middle level
GGAGGAGGAGGAGGAGGA [G4_r(GGA)6]
lower level

Would you kindly look at the next entry?
Data request: Which bin should I file `CACUUCUUUCUUUGAGAGAAGUG` under?
Data returned: lower level

---

Recorded pull-down binding Z-score values for a group of sequences are listed next.
- Tested on: TO-N3-2 (biotin conjugate)
- Assay protocol: pull-down binding Z-score (relative to library population); higher = stronger binding
- Condition label: RNA library: Library-2
Respond numerically, and do not add a unit to the figure.

// worked examples, pull-down binding Z-score included
UACUAAUAUGUUUACACCACUAAUUCAACCUAUUGGUGCUUUGGACAUAUCAGCAUCUAUAGUAGCUGGUGGUAUUGUAGCUAUCGUAGUA [SHAPE_invivo_SARS-CoV-2_Motif_188]
0.354
CUUGCUUUGAAACUAAAGAAGUAAG [hsa-mir-302a]
-0.319
CCUUCUCCUCUUUGCAGUGAUAAAGGAGG [hsa-mir-4460]
-0.549

Data request: Give recorded pull-down binding Z-score with TO-N3-2 (biotin conjugate) for the following sequence: `CUGGACUCUAAAUAGAAACCAACCUGCUGCAACAGCAUUGGCCAACACAAUAGAAGUGUUCAGAUCAAAUGGCCUCACGGCCAAUGAGUCUGG`
Data returned: 0.269

Data request: Please tell me: pull-down binding Z-score of CUUAAGUGGUUCGGGUAAAUCACUUUAA [hsa-mir-3977] , system TO-N3-2 (biotin conjugate)?
Data returned: -0.585

Data request: Fill in the recorded pull-down binding Z-score for this sequence, with TO-N3-2 (biotin conjugate) as test system: GGAGACACUUUUACUAUAUAUAGUGGCUCC [hsa-mir-3156-1]
Data returned: -1.51

---

- Tested on: TO-3-N3 (biotin conjugate)
- Assay protocol: pull-down binding Z-score (relative to library population); higher = stronger binding
- Condition label: RNA library: Library-2
Endpoint: pull-down binding Z-score
Give the figure by itself; no unit, no explanation.

Record excerpt, results attached:
GUCAAAGUGAC [SHAPE_invivo_SARS-CoV-2_Motif_385]
-0.196
ACCUUCCAAGGCUCAGAAGGU [hsa-mir-4650-1_4650-2]
-0.702
GCGGCCGCGCUGGCCGCU [hsa-mir-3665]
-0.0786

Data request: # input sequence: `CCUCUAAAAGCCCCAAAAGAAAUUAUCUUCUUAGAGGGAGAAACACUUCCCACAGAAGUGUUAACAGAGG` ; wanted: its pull-down binding Z-score
Data returned: -0.556

Data request: Which value of pull-down binding Z-score has been reported for UAGGCUGUGCAGGUCCCAAUGGGCCUA [hsa-mir-26a-1] in the records?
Data returned: 0.169

Data request: Fill in: pull-down binding Z-score of CUCGGGUGGAUAAGUCUGAUCUGAG [hsa-mir-3663] is ___
Data returned: -0.724

Data request: Fill blank: measured pull-down binding Z-score of the sequence `CAUGUGUUGGUAGCGAUAAUGUUACUGACUUUAAUG` is ____.
Data returned: -0.663

Data request: Sample GUCUGGUAGUCGGAC [IAV_invivo_NA_6_Motif_1+IAV_invivo_NA_6_Motif_1] — what was its pull-down binding Z-score?
Data returned: -0.00665

---

- Test system: TO-3-N3 (biotin conjugate)
- Assay protocol: pull-down binding Z-score (relative to library population); higher = stronger binding
- Condition label: RNA library: Library-2
Item-by-item account of pull-down binding Z-score
Output: the number by itself.

Before answering, review these 6 worked examples.
GCUAUGCAAAUGGC
-0.537
GGUCCAGCAACAGCUCAAAUGGCC [IAV_invivo_PB1_2_Motif_29+IAV_invivo_PB1_2_Motif_29]
-0.414
UCAAACAAGUUUCCAAAUUGUUUGA [hsa-mir-488]
0.554
GUAAUGAUCCAUUUUUGGGUGUUUAUUAC [DMSMaPseq_invitro_SARS-CoV-2_Motif_387]
-0.1
UGCUGAGGCUUCUAAGAAGCCUCGGCA
0.0854
CUCCGGGUUGGGG [hsa-mir-1469]
-0.552

Data request: Data request, read-out pull-down binding Z-score, for GCUAUAUGAUGC [IAV_invivo_PA_3_Motif_14+IAV_invivo_PA_3_Motif_14]
Data returned: -0.0014

Data request: Which pull-down binding Z-score is listed for GUUACUGUGGGAACUGGAGGUAAC [hsa-mir-132] ?
Data returned: 0.839

Data request: Which value of pull-down binding Z-score has been reported for GGUCUAUAUGCC [SHAPE_invivo_SARS-CoV-2_Motif_218] in the records?
Data returned: 0.153

Data request: Please report the recorded pull-down binding Z-score for CUGUGAUAACAACUCAG [hsa-mir-4705] .
Data returned: 0.564

---

- Tested on: TO-N3 (biotin conjugate)
- Assay protocol: pull-down binding Z-score (relative to library population); higher = stronger binding
- Condition label: RNA library: Library-2
Binary call on pull-down binding Z-score: y from -0.3 upward, n beneath that.

Take a look at these entries with their results.
AUGCUUGGAACAGGAAGAGAAUCAGCAACUGUGUUGCUGAUUAUUCUGUCCUAUAUAAUUCCGCAU [DMSMaPseq_invitro_SARS-CoV-2_Motif_399]
n
CUGUGCAGGGCCAACUGUGCACAC [hsa-mir-3681]
y
AACUUUAGCUUGUUUUGUGCUUGCUGCUGUU
y
AUAUAGAUAUCAGCUACCUAUAU [hsa-mir-3144]
n
CUGCAGGGACUGUGACACUGAA [hsa-mir-6816]
y
GUGAAACAUUUGUCAC [SHAPE_invivo_SARS-CoV-2_Motif_46]
y
UGGUUUCCAACCCACUAAUGGUGUUGGUUACCA
n
CCAGUACCAGAGGUGAAAAUACUCAAUAAUUUGGGUGUGGACAUUGCUGCUAAUACUGUG
y

Data request: Evaluate GCUGCUUGCACUCGUUCAGC [hsa-mir-3661] : pull-down binding Z-score at minimum -0.3?
Data returned: y

Data request: Threshold query (pull-down binding Z-score >= -0.3) on AUUGAGUUACCUUUCUGACUUUCCCACU [hsa-mir-28]
Data returned: y

Data request: Is the recorded value of pull-down binding Z-score equal to or greater than -0.3 for this sequence? AAAUAAGCUCCAUAUCAAUGAGAAUUUCAAUGGGAUUAUGUG [hsa-mir-4791]
Data returned: n

---

- System: TO-3-N3-2 (biotin conjugate)
- Assay protocol: pull-down binding Z-score (relative to library population); higher = stronger binding
- Condition label: RNA library: Library-2
Mark false for pull-down binding Z-score values under -0.3, and true for everything at or above.

ACCUCGUCUAUGCUUUAAGGCAUUUUGAUGAAGGU
false
CAAUCAUGUAUAAUUAAAUUUGAUUG [hsa-mir-514a-1]
true
GGUUUUAUAGCUGGCUUGAUUGCCAUAGUAAUGGUGACAAUUAUGCUUUGCUGUAUGACC
false
UUGCUUAAG [hsa-mir-924]
true

# ---- query sequence ----
Data request: Exam item: decide whether the reported pull-down binding Z-score for AGGGCAGCUCCCAUGACUGCCUGACCGC [hsa-mir-6880] is at least -0.3.
Data returned: true

---

- Tested on: TO-N3 (biotin conjugate)
- Assay protocol: pull-down binding Z-score (relative to library population); higher = stronger binding
- Condition label: RNA library: Library-2
I would appreciate it if you labelled entries rule met when pull-down binding Z-score is -0.1 or higher, otherwise rule not met.

Answered examples (5):
AAGGAGCUGGUGGCCAUAGUUACGGCGCCGAUCUAAAGUCAUUUGACUUAGGCGACGAGCUUGGCACUGAUCCUU [DMSMaPseq_invitro_SARS-CoV-2_Motif_14]
rule met
UGCACCAGUUCUGGCCGCUGGUGGA [hsa-mir-4683]
rule met
GUGAGAGAGAGCCGGAACCCAGGGAAUGCUGAGUUCGAAGAUCUCAC [IAV_invivo_NP_5_Motif_14+IAV_invivo_NP_5_Motif_14]
rule met
CCUUCGCUUUAUUUGUGACGAAUC [hsa-mir-154]
rule not met
GCUGCCAGGAAAUCCCUAUUUCAUAUAAGAGGGGGCUGGCUGGUUGC [hsa-mir-448]
rule met

Data request: Determine whether this sequence has pull-down binding Z-score no lower than -0.1: GAAGGGAAGCUGGGAACCUGACUGCCUC [hsa-mir-6867]
Data returned: rule met

Data request: Quick check: does GGGAGAGGGGCCCAGCUGACCCUCCUGUC [hsa-mir-6879] have pull-down binding Z-score greater than or equal to -0.1?
Data returned: rule met

Data request: Does GCAUGGGGCUAGGAGGCCCCGCGC [hsa-mir-6825] have a reported pull-down binding Z-score of at least -0.1?
Data returned: rule met
